- Tested on: HCC70
- protocolDetails: CellTiter-Glo cell viability assay
- Assay type: cell-based
- condition: Homo sapiens; HCC70, BREAST, TNBC, 72 hours
pIC50: −log10 of the molar value.
observable: pIC50

| compound | measuredValue |
| --- | --- |
| CC[C@@H](C(=O)Nc1ncc(C(=O)NO)s1)c1ccc(OC)cc1 | 6.47 |
| CCC(C(=O)Nc1ncc(C(=O)NO)s1)c1ccc(OC)cc1 (racemic) | 7.00 |
| CC[C@H](C(=O)Nc1ncc(C(=O)NO)s1)c1ccc(OC)cc1 | 7.28 |

====

The following compounds are shown together with reported IC50 values.
- System: A204
- protocolDetails: CellTiter-Glo cell viability assay
- Assay type: cell-based
- condition: Homo sapiens; A204, RHABDOMYOSARCOMA, Muscle, 72 hours
- Experimental: Cell viability in the presence of varying concentrations of the above listed compounds at different time points was used to assess cytotoxicity and the effect of the compounds on cell proliferation. Cell viability was measured by the CellTiter-Glo® cell viability assay from Promega (Madison, Wis.). […] Following treatment, CellTiter-Glo® is added to treatment wells and incubated at 37° C. luminescence values were measured at using a Molecular Devices Spectramax microplate reader […]
observable: IC50 (nM)

| compound | observable | uom | measuredValue |
| --- | --- | --- | --- |
| CCC(C(=O)Nc1ncc(C(=O)NO)s1)c1ccc(OC)cc1 (racemic) | IC50 | nM | 33 |
| CC[C@@H](C(=O)Nc1ncc(C(=O)NO)s1)c1ccc(OC)cc1 | IC50 | nM | 170 |
| CC[C@H](C(=O)Nc1ncc(C(=O)NO)s1)c1ccc(OC)cc1 | IC50 | nM | 54 |

Sourced from patent US11420947B2
